experiment: M. tuberculosis growth inhibition, HTS (AID 449762);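 also: bacterial growth assessed after seven days of incubation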; settings: M. tuberculosis H37Rv growth inhibition, 7H9 media; at 25 µM; hits give high values
The campaign covered roughly 330,000 compounds. About 1,900 (0.58%) were called active. Another 4% or so got no clear call; they are omitted. The list is a sample of the results. Measured potencies and affinities stand elsewhere.
observedProperty: inhibition (%)
Write down the numeric answer in % and omit the unit.

Sample answers from the record:
# query: inhibition of entry "C=CCOc1ccccc1CNCCNC(=O)c1nonc1N"
-4.17

# lookup: inhibition of CC(NCC(O)COc1ccc2ccccc2c1)c1ccccc1 (stereo not drawn)
9.15

Which inhibition value belongs to "CN1CCCN(C(=O)c2cccc(Br)c2)CC1" ?
-4.86

Requested field: inhibition. Item: "CCOc1ccc(NC(=O)CSc2ccc3nnc(-c4cccnc4)n3n2)cc1"
-11.5

What measured inhibition goes with Cc1cccc(C)c1NC(=S)N(CCN(C)C)C(C)c1ccccn1 (stereo not drawn) ?
-5.58

Next:
Data request, read-out inhibition, for "Cc1c(NS(=O)(=O)c2cccc(C(=O)OCC(=O)N(C)C3CCCCC3)c2)c(=O)n(-c2ccccc2)n1C"
-13.2

Please look up its inhibition: "CCCCn1cnc2c(oc3nc4c(cc32)CCCC4)c1=O"
5.81

Consider the molecule "Cc1cc(NC(=O)Cn2ccsc2=N)c([N+](=O)[O-])cc1C" and give its measured inhibition.
-4.45

inhibition for "CC(=O)c1c(C(C)=O)c(C)n(-c2cccc([N+](=O)[O-])c2)c1C" ?
4.11

Record request: inhibition value, item "N=c1sccn1CC(=O)Nc1ccc(Cl)cc1[N+](=O)[O-]"
-3.88
